- STUDY SYSTEM: human cannabinoid CB1 receptor (Homo sapiens)
- Sequence (P21554 whole entry): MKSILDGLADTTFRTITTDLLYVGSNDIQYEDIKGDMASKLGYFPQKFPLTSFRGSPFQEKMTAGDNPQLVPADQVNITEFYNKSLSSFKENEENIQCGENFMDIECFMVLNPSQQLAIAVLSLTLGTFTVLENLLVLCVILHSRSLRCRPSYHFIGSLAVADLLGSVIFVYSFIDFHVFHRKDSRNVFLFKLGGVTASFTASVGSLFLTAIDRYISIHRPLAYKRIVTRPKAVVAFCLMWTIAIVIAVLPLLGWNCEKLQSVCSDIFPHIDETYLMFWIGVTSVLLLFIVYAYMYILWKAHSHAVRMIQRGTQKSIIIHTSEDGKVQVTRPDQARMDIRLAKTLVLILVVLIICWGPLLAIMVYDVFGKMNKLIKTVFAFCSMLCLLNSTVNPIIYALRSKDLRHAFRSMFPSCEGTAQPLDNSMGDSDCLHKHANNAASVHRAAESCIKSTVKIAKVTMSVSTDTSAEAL
- TEST DESCRIPTION: In vitro affinity for human cannabinoid CB1 receptors ([3H]CP-55,940 binding, CHO cell membranes)
- STATED CONDITIONS: radioligand [3H]-CP-55,940; membranes of CHO cells stably transfected with human CB1 receptor; read-out: CB1 receptor binding [3H]-CP-55,940 pKi (converted)
MEASUREMENT TYPE: Ki

{"COMPOUND": "CN(C)CCC=C1c2ccccc2CCc2ccccc21", "STUDY SYSTEM": "human cannabinoid CB1 receptor (Homo sapiens)", "Ki": "> 10 µM"}
{"COMPOUND": "CN[C@H]1CC[C@@H](c2ccc(Cl)c(Cl)c2)c2ccccc21", "STUDY SYSTEM": "human cannabinoid CB1 receptor (Homo sapiens)", "Ki": "> 10 µM"}
{"COMPOUND": "CN(C)CCCC1(c2ccc(F)cc2)OCc2cc(C#N)ccc21 (centres unmarked)", "STUDY SYSTEM": "human cannabinoid CB1 receptor (Homo sapiens)", "Ki": "> 10 µM"}
{"COMPOUND": "Fc1ccc2[nH]cc(CCCCN3CCNCC3)c2c1", "STUDY SYSTEM": "human cannabinoid CB1 receptor (Homo sapiens)", "Ki": "> 1 µM"}

Task: State the recorded Ki for this entry: CCc1c(C(=O)NCCCCCCC(=NOCCN)c2ccc(C(F)(F)F)cc2)nc(-c2ccccc2Cl)n1-c1ccc(Cl)cc1 (racemic)
Result: 0.0398 µM

###

- STUDY SYSTEM: serotonin reuptake sites (Rattus norvegicus, UniProt P31652)
- Construct: from tissue
- Sequence (P31652 whole entry): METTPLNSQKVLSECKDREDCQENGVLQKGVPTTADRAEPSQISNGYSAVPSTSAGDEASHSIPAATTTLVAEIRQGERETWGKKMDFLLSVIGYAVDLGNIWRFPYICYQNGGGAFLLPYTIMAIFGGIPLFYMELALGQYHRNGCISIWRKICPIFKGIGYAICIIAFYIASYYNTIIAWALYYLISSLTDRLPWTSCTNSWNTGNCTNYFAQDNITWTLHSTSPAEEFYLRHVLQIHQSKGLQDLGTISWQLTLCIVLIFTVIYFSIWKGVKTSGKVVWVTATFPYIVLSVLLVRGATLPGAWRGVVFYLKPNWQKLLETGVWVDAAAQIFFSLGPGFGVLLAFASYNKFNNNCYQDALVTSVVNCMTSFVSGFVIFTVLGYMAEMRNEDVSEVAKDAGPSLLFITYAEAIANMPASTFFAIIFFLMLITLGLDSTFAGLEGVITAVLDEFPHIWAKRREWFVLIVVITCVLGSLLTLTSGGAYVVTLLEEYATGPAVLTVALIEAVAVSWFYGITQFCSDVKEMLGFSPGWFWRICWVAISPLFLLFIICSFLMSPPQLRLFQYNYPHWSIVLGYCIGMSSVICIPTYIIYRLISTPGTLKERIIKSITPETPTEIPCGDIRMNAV
- TEST DESCRIPTION: In vitro affinity for serotonin reuptake sites ([3H]-paroxetine binding, Habert 1985)
- STATED CONDITIONS: radioligand [3H]-paroxetine; read-out: 5-HT reuptake binding [3H]-paroxetine pKi (converted)
MEASUREMENT TYPE: Ki (nM)
The figure you give is taken to be in nM; do not add the unit.

Look over these answered cases.
{"MOLECULE": "Cc1c(C(=O)NN2CCCCC2)nn(-c2ccc(Cl)cc2Cl)c1-c1ccc(Cl)cc1", "Ki [nM]": 5010}
{"MOLECULE": "O=S(=O)(/N=C(/N1CCN(CCCCc2c[nH]c3ccc(F)cc23)CC1)N1CC(c2ccccc2)C(c2ccc(Cl)cc2)=N1)c1ccc(Cl)cc1 (stereo not drawn)", "Ki [nM]": 25.1}

Task: Entry CCc1c(C(=O)NCCCCCCC(=NOCCN)c2ccc(C(F)(F)F)cc2)nc(-c2ccccc2Cl)n1-c1ccc(Cl)cc1 (racemic) : reported Ki = ?
Result: 200

Task: Ok, now `CCc1c(C(=O)N2CCN(CCCCc3c[nH]c4ccc(F)cc34)CC2)nc(-c2ccccc2Cl)n1-c1ccc(Cl)cc1`
Result: 20

Task: Now try NCCO/N=C(/CCCCCCN/C(=N/S(=O)(=O)c1ccc(Cl)cc1)N1CC(c2ccccc2)C(c2ccc(Cl)cc2)=N1)c1ccc(C(F)(F)F)cc1 (stereo not drawn) .
Result: 15.8

###

- STUDY SYSTEM: human cannabinoid CB1 receptor (Homo sapiens)
- TEST DESCRIPTION: In vitro affinity for human cannabinoid CB1 receptors ([3H]CP-55,940 binding, CHO cell membranes)
- STATED CONDITIONS: radioligand [3H]-CP-55,940; membranes of CHO cells stably transfected with human CB1 receptor; read-out: CB1 receptor binding [3H]-CP-55,940 pKi (converted)
Known Ki of a selection of compounds
Answer in nM, number only, no unit symbol.

Some entries whose results are on file:
{"COMPOUND": "O=S(=O)(/N=C(/N1CCN(CCCCc2c[nH]c3ccc(F)cc23)CC1)N1CC(c2ccccc2)C(c2ccc(Cl)cc2)=N1)c1ccc(Cl)cc1 (stereo not drawn)", "UNIT STRING": "nM", "Ki": 251}
{"COMPOUND": "NCCO/N=C(/CCCCCCN/C(=N/S(=O)(=O)c1ccc(Cl)cc1)N1CC(c2ccccc2)C(c2ccc(Cl)cc2)=N1)c1ccc(C(F)(F)F)cc1 (stereo not drawn)", "UNIT STRING": "nM", "Ki": 251}

Next item in the queue.
Task: # Ki lookup, item `CCc1c(C(=O)N2CCN(CCCCc3c[nH]c4ccc(F)cc34)CC2)nc(-c2ccccc2Cl)n1-c1ccc(Cl)cc1`
Result: 31.6

###

- STUDY SYSTEM: serotonin reuptake sites (Rattus norvegicus, UniProt P31652)
- Construct: from tissue
- TEST DESCRIPTION: In vitro affinity for serotonin reuptake sites ([3H]-paroxetine binding, Habert 1985)
MEASUREMENT TYPE: pKi
Note on pKi: it is the negative log10 of concentration, concentration in mol/L.

Task: Tell me the measured pKi of Fc1ccc2[nH]cc(CCCCN3CCNCC3)c2c1 [compound A] , please.
Result: 8.90

###

- STUDY SYSTEM: human cannabinoid CB1 receptor (Homo sapiens)
- TEST DESCRIPTION: In vitro affinity for human cannabinoid CB1 receptors ([3H]CP-55,940 binding, CHO cell membranes)
- STATED CONDITIONS: radioligand [3H]-CP-55,940; membranes of CHO cells stably transfected with human CB1 receptor; read-out: CB1 receptor binding [3H]-CP-55,940 pKi (converted)
MEASUREMENT TYPE: Ki

{"CHEMICAL STRUCTURE": "c1ccc2c(CCC3CCNCC3)c[nH]c2c1", "RESULT": "> 1000 nM"}
{"CHEMICAL STRUCTURE": "Fc1ccc([C@@H]2CCNC[C@H]2COc2ccc3c(c2)OCO3)cc1", "RESULT": "> 1000 nM"}

Task: GET /values?readout=Ki&item= `CN(C)CCCN1c2ccccc2CCc2ccccc21`
Result: > 1000 nM
